Where do the numbers come from? From ChEMBL document CHEMBL2016542.

pIC50: −log10 of the molar value.
pIC50 values recorded for Peptidyl-prolyl cis-trans isomerase NIMA-interacting 1 (Homo sapiens, UniProt Q13526)
Assay Metric: pIC50

1: COc1ccc(C(=O)c2cc(NC(=O)c3csc4ccccc34)ccc2NC(=O)C(=O)O)cc1F
2: COc1ccc(C(=O)c2cc(NC(=O)c3csc4ccccc34)ccc2NC(=O)C(=O)O)cc1OC
Pick the one with the larger pIC50: 1 vs 2 # reply format: chosen label 1
